All values here come from paper PMC10342118.

experimental system: MAO-A (Homo sapiens)
Sequence (P21397 1-527): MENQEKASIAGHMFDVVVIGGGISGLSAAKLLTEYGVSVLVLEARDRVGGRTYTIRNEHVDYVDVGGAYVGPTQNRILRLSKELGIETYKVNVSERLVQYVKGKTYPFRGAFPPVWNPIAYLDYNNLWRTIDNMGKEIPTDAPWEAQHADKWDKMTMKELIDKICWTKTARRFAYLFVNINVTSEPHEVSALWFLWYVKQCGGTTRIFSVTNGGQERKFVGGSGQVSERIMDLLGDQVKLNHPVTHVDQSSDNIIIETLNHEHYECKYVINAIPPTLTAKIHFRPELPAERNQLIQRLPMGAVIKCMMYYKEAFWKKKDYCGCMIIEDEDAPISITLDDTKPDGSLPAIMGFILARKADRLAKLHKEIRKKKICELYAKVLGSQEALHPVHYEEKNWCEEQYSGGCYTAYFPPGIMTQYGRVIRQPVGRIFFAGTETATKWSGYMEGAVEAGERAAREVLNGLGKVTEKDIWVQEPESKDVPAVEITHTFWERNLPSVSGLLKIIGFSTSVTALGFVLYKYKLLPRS
run description: Isothermal titration calorimetry (ITC) of the interaction of MAO-A with the compounds
Format: binding
Protocol: Protein-ligand interaction analysis was performed using isothermal titration calorimetry (ITC). During the analysis, the heat of uptake or release, due to the interaction of MAO-A with the tested compounds, was recorded. […] The highest negative change in enthalpy was characterized by the interaction of the enzyme with compounds 3 (−19.19 kJ/mol) and 4 (−13.37 kJ/mol), and the lowest value of ΔH was recorded during interactions with compound 1 (−4.51 kJ/mol). […]

compound: CCCCC1OC(=O)c2ccccc21 (stereo not shown) [Compound 1, 3-n-butylphthalide]
Kd: 24.3 µM
